// provenance: PubChem BioAssay (NCI)

system: CCRF-CEM leukemia; assay: NCI tumour cell line growth inhibition, 48 h; in the data active = GI50 below about 0.43 µM; inactive = the rest
The reply should name one outcome from active, inactive

Use the examples below as a reference point.
{"compound": "O=C(/C=C(/C=C/c1ccc2[nH]ccc2c1)OB(F)F)/C=C/c1ccc2[nH]ccc2c1", "assigned-category": "active"}
{"compound": "CCOC(=O)Oc1c(OC)cc(C(=O)c2ccc(OC)c(O)c2OC)cc1OC", "assigned-category": "active"}
{"compound": "CCCN1C(=O)NC(=O)C(CC)(N2C(=O)c3c(F)c(F)c(F)c(F)c3C2=O)C1=O (stereo not given)", "assigned-category": "inactive"}
{"compound": "COc1ccc(-c2noc(C(=O)O)c2-c2cc(OC)c(OC)c(OC)c2)cc1", "assigned-category": "inactive"}
{"compound": "CC1CC(C)CC(C)C(O)/C(C#N)=C/C=C/CC(C2CCCC2C(=O)O)OC(=O)CC(O)C(C)C1 (stereo not given)", "assigned-category": "active"}
{"compound": "O=C1OCC2=C1C(c1cccc(F)c1)c1cc3c(cc1N2CCO)OCO3 (stereo not given)", "assigned-category": "inactive"}

Task: Record request — test call for `C/C(=N/O)c1cccc(Nc2cc(-n3nnc4ccccc43)nc3ccccc23)c1`
Output: inactive

Task: Record request — test call for `Cc1c2cnccc2c(C)c2c1c1cc(C#N)ccc1n2C`
Output: active

Task: Record request — test call for `O=S(=O)(Nc1ccc(Br)cc1)c1ccc(-c2cnc(C3CC3)o2)cc1`
Output: inactive

Task: Record request — test call for `O=C(Nc1cccc(Cl)c1)Nn1cnnc1`
Output: inactive

###

test system: OVCAR-3 ovarian; experiment: NCI tumour cell line growth inhibition, 48 h; in the data active = GI50 below about 0.43 µM; inactive = the rest
The reply should name one outcome from 1.0 for active, 0.0 for inactive

Use the examples below as a reference point.
{"compound": "N#C[Se]Cc1cc(-c2ccccc2)n(-c2ccc(S(N)(=O)=O)cc2)n1", "study-target": "OVCAR-3 ovarian", "assigned-category": 0.0}
{"compound": "Cc1ccc2cnc(N)c(C#Cc3cc(C(=O)Nc4ccc(CN5CCN(C)CC5)c(C(F)(F)F)c4)cnc3C)c2c1", "study-target": "OVCAR-3 ovarian", "assigned-category": 0.0}
{"compound": "c1ccc(-c2nc(-c3ccccn3)nc(-c3ccccn3)n2)nc1", "study-target": "OVCAR-3 ovarian", "assigned-category": 0.0}
{"compound": "CCOC(=O)Oc1c(OC)cc(C(=O)c2ccc(OC)c(O)c2OC)cc1OC", "study-target": "OVCAR-3 ovarian", "assigned-category": 1.0}
{"compound": "Cc1cc([NH-])c([NH-])cc1C.[Cl][Pt+2][Cl]", "study-target": "OVCAR-3 ovarian", "assigned-category": 0.0}
{"compound": "CCCCN(CCCC)Cc1cc(Nc2ccnc3cc(Cl)ccc23)ccc1O", "study-target": "OVCAR-3 ovarian", "assigned-category": 0.0}
{"compound": "CC(CO)Nc1cc(-c2[nH]c3cccnc3c2-c2ccc(F)cc2)ccn1 (centres undefined)", "study-target": "OVCAR-3 ovarian", "assigned-category": 0.0}
{"compound": "CC[O-].CC[O-].O=C([CH-]C(=O)c1ccccc1)CCCCCCCCC(=O)[CH-]C(=O)c1ccccc1.[Ti+4]", "study-target": "OVCAR-3 ovarian", "assigned-category": 0.0}

Please find the next compound below.
Task: Record request — test call for c1ccc(C2ONC3=NCCN32)cc1 (centres undefined)
Output: 0.0
